// provenance: the supplement of paper PMC6555819

Recorded measurements of PBM binding z-score, one per entry
Tested on: LXRa:RXRa (NR concentration 270 nM, RXRa partner concentration 90 nM)
EXPERIMENTAL PROTOCOL: PBM binding z-score (relative to random genomic background probes); higher = stronger binding; sequences stand for … in GC…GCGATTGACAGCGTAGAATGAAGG
// print number alone

Value of measured PBM binding z-score for the entry "AATACAGGGTCATCGTAGTCCAGAGTACGCACAG" : 6.18

The sequence listed as "CCTCGCAGGACAACAGGAGGTCAGAGCTGCCAGA" has a reported PBM binding z-score of 1.63

So, "GCTAGTTGGTCAGTAAACGGTCACACACCGGTCG" ? Its PBM binding z-score was 0.121

The sequence listed as "TGAATGATGTTATAAGATCAGGGAACGTTGCAAA" shows PBM binding z-score equal to -0.353

PBM binding z-score recorded for this sequence, "TCTCGGAGGACACGAAGGTCAGATCTTTCCAGAG" , is 1.41

Form: sequence = "CCGAGTAGGTTACGGGGCATTCAGGCAACGGTGA" ; PBM binding z-score = 0.612

// recorded PBM binding z-score for "GCGACTGGGGCATCAGCAGGTTTCCATAACTTAA" : -0.452

What the record says about "TCATATAGGTAATACAGGTGAAAGACGGCATCTA" : PBM binding z-score is 1.28

Sample "GCATATAGGTAATACAACGTGAAAGTCCGATTGT" ; PBM binding z-score observed: -0.502

Reported PBM binding z-score ( "TCTGCTAGGTCACCGATGGTCAGCTAATCTGCTA" ) = 3.3

Next:
The value of PBM binding z-score measured for the sequence "CGTCCAAAGTCAGCAGGTCAGTGAAAGCGACGTG" turned out to be 0.521

Quick note, PBM binding z-score for "ATCTCTAGGTAAACAAGTTCAGTGAATGCCGAAC" landed at 1.06

The recorded PBM binding z-score for "TTACCAAGGTGAAGGTGGTTGATCCCTCTGTAGA" is 0.457

Entry "CCTTACGGGTCACGAGGTTTTAGCACGACGAGCG" ; PBM binding z-score = 4.19

----------
System: RARb homodimer (NR concentration 270 nM)
EXPERIMENTAL PROTOCOL: PBM binding z-score (relative to random genomic background probes); higher = stronger binding; sequences stand for … in GC…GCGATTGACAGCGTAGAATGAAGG
Entries and their PBM binding z-score values follow.
Answer using only a numeral; do not append any unit.

Some solved entries appear below for comparison.
RARb homodimer (NR concentration 270 nM) assay, sequence "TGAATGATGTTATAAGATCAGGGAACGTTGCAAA" , recorded PBM binding z-score = -0.648

RARb homodimer (NR concentration 270 nM) data for "CCTATTAGTTGACCATAAGGGCAACCGTAGCTCG" ; its PBM binding z-score: 1.93

The sequence "CGTCAAAGTTCAAGGTAACCTAACAGAAAGCAGC" , when measured on RARb homodimer (NR concentration 270 nM), yielded PBM binding z-score of 4.17

Entry "CAGCCTAAGTCAGGGCCAGTATAGGAGGAACGTT" under RARb homodimer (NR concentration 270 nM) had PBM binding z-score of 0.00988

"GCATAAAGGTAATACAAGGTGAAAGTCCGATTGT" on RARb homodimer (NR concentration 270 nM) gives PBM binding z-score = 1.18

New cases:
// sequence "ACTAGCAGGCCAAGGGTCACTCCAGATTAGTCCG" , assay RARb homodimer (NR concentration 270 nM), PBM binding z-score value: 3.65

# "TCTCAAAGTTCAAAGGTAACGTAAGTATCCACAC" with RARb homodimer (NR concentration 270 nM): PBM binding z-score is 4.13

The observed PBM binding z-score for "GCATATAGGTAATACAAGATGAAAGTCCGATTGT" when tested with RARb homodimer (NR concentration 270 nM) stands at -0.399

Record "ATCTCTAGGTAACCAAGTTCAGTGACTGCCGAAC" has RARb homodimer (NR concentration 270 nM) PBM binding z-score equal to 1.39

Given the sequence "TTTAGCAGGCCAGAGGGTCACTCAAGAGGTACGG" and test system RARb homodimer (NR concentration 270 nM), the measured PBM binding z-score is 2.65

----------
Recorded measurements of PBM binding z-score, one per entry
Test system: RXRa homodimer (NR concentration 180 nM)
EXPERIMENTAL PROTOCOL: PBM binding z-score (relative to random genomic background probes); higher = stronger binding; sequences stand for … in GC…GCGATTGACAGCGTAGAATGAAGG
In your answer, state the number alone without any accompanying words.

Before answering, review these 5 worked examples.
// field: PBM binding z-score; key: "GATACCGGGTCAAGGCCAGAGTACGCGTATTGAT" ; value = 4.58

Looking up "GGAAAGAGGGCATTCGAGTTGATAGCATGGCGAT" , I found its PBM binding z-score recorded as 1.32

Recorded PBM binding z-score (sequence "CCTAACGGGTCAAGGTTATAGCACGGGTGGTACG" ): 4.35

Kindly note the recorded PBM binding z-score for "CCAACTAGGTCATCCAGGACAGTGAATACATTGA" , which is 2.77

The sequence identified as "GCTATTAGCTGAAAGGGCAACCGAATGATTCTCG" registered its PBM binding z-score at 0.703

***
response.value for "CCTACTGGGCAAAGGTCATTGATCAGTCAAAGCA" (field: PBM binding z-score) = 6.88

Data point: "CCTTACGGGTAACTGACAGGTTATAGCATTTGGA" ; PBM binding z-score = 0.525

Form field PBM binding z-score, entry "TAGCCTAGGTCATGGGCCAATATACCACGCGAAC" : 3.55

Entry "TCTTGTACATCAACAGGAGGTTAAGAAAGATCGA" , PBM binding z-score reported as 0.927

Form: sequence = "GCTAGTTGGTCGGTAAAAGGTCACACACCGGTCG" ; PBM binding z-score = 5.42

Entry "ACAGACAGGTGATGAAGGTAACTCCGGCTATCAT" , PBM binding z-score reported as 0.346

Consider "AGTCAAAGTTCACTAGGTAACGCAAGATTCAGCT" . Its measured PBM binding z-score is 4.24

Entry under test: "CGTCCAAGGTCAGCAGGTAAGTGAAAGCGACGTG" . Its PBM binding z-score was 3.94

----------
Below, each entry is listed alongside its reported PBM binding z-score.
System: RARb:RXRa (NR concentration 270 nM, RXRa partner concentration 90 nM)
EXPERIMENTAL PROTOCOL: PBM binding z-score (relative to random genomic background probes); higher = stronger binding; sequences stand for … in GC…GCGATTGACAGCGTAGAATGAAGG
Reply with just the number.

Before answering, review these 2 worked examples.
Reported RARb:RXRa (NR concentration 270 nM, RXRa partner concentration 90 nM) PBM binding z-score for item "CCGAGTAGCTTATGGGGCATTCAGGCAACGGTGA" was -0.266

Given the sequence "GCAGACTGGTGAAACGCAGGTAACTCAGGGTGGC" and test system RARb:RXRa (NR concentration 270 nM, RXRa partner concentration 90 nM), the measured PBM binding z-score is -0.689

***
Simply: "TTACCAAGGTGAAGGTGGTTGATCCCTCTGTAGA" , RARb:RXRa (NR concentration 270 nM, RXRa partner concentration 90 nM), PBM binding z-score = 1.37

The observed PBM binding z-score for "CAAACTAGGACACCGGAAGGTCAAAGTCCGCATG" when tested with RARb:RXRa (NR concentration 270 nM, RXRa partner concentration 90 nM) stands at 3.59

Record for "ATATGTAGGTTAAGGGTCATTTAGGTTGGTTCGC" under target or system RARb:RXRa (NR concentration 270 nM, RXRa partner concentration 90 nM): PBM binding z-score reported as 3.61

Hey, RARb:RXRa (NR concentration 270 nM, RXRa partner concentration 90 nM) data for "ATACCAAGCTGATCGTGAGGTCGTTGATACTAAC" : PBM binding z-score came out at 0.454

# lookup: "CCTACTGGGTCAAGGTCATTGATCAGTCAAAGCA" on RARb:RXRa (NR concentration 270 nM, RXRa partner concentration 90 nM), PBM binding z-score = 4.73

Summary line: "TTACCAAGGTGAAGGTCTTTGATCCCTCTGTAGA" , RARb:RXRa (NR concentration 270 nM, RXRa partner concentration 90 nM), reported PBM binding z-score = 1.65

For the sequence "ATCTCTAGGTAAAAGTTCAGCGAATCCCGAGGAT" , the measured PBM binding z-score on RARb:RXRa (NR concentration 270 nM, RXRa partner concentration 90 nM) was 2.93

Form field PBM binding z-score for item "TAGCCTAGGTAAGATCGGGCCAGTATACGCTATA" on RARb:RXRa (NR concentration 270 nM, RXRa partner concentration 90 nM): -1.22

Entry "TCTAGTTGGTCACGGAGGTCTCACACGACGGGTA" ; assay system RARb:RXRa (NR concentration 270 nM, RXRa partner concentration 90 nM); PBM binding z-score recorded at 1.91

Tested on RARb:RXRa (NR concentration 270 nM, RXRa partner concentration 90 nM): "CCTTACGGGTCATTCCAGGTTATAGCATCGGAGT" . Observed PBM binding z-score: 3.51

Per the reported RARb:RXRa (NR concentration 270 nM, RXRa partner concentration 90 nM) data, "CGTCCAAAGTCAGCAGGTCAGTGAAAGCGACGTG" has PBM binding z-score of 2.05

// PBM binding z-score (RARb:RXRa (NR concentration 270 nM, RXRa partner concentration 90 nM)) for "CGAACTAGGTCATTGACAGGACAGTGAGTAGTAA" = 3.6

# PBM binding z-score measured on RARb:RXRa (NR concentration 270 nM, RXRa partner concentration 90 nM) for item "CCGTCTGGGGCAAGGTTACCATAACGCACAGCCA" = 1.72

// returns PBM binding z-score for "TCATATAGGTAAACAGATGAAAGTCCGTAAGTTA" with RARb:RXRa (NR concentration 270 nM, RXRa partner concentration 90 nM); value = 0.483

// PBM binding z-score (RARb:RXRa (NR concentration 270 nM, RXRa partner concentration 90 nM)) for "TTACCAAGGTGAAGGTCGTTGACCCCTCTGTAGA" = 2.87

The observed PBM binding z-score for "TAGCCTAGGTCATGCGGGCCAGTATGGTGTCGGC" when tested with RARb:RXRa (NR concentration 270 nM, RXRa partner concentration 90 nM) stands at 3.65

The sequence "CCTACTGGGCCACGAAAGGTTATTGATTCAGTGA" , when measured on RARb:RXRa (NR concentration 270 nM, RXRa partner concentration 90 nM), yielded PBM binding z-score of 1.39
